- Test system: Bacillus subtilis
- protocol.details: cleaved RNA product abundance (RNA/gDNA barcode ratio) relative to median wild-type variant (ratio to wild type); higher = more accumulation of the downstream cleavage product
- condition.context: experiment (reporter, strain, medium): exp 4a: truncated aprE reporter, strain BJT201 with 2% xylose (RNase J1 expressed); cleavage site: cggR-gapA (positions -7 to +36 mutated)
Reported cleaved RNA product abundance values are given for each entry in this list.
Write the number on its own, no unit after it.

# sequence, cleaved RNA product abundance
measured = [
    ("ACAGACGAAGGAGCCGCAAAGAAGTTATTAAGGGATGAATAATCCCGAAATATAAATATCTCTCACTTATTTAAA", 0.323),
    ("ACAGACGAAGGAGCCGCAAAGAAGTCATTAAGCGATGAATAATCCCTCAATATAAATATCTCTCACTTATTTAAA", 0.0665),
    ("ACAGACGAAGGAGCCGCAAAAAAGTTATTAAGGGATGAATAATCCCACAATATAAATATCTCTCACTTATTTAAA", 0.254),
]

Could you now look at the following sequence, please?
**Q:** Quickly give me recorded cleaved RNA product abundance for ACAGACGAAGGAGCCGCAAAGAAGTTATTAAGGCATGAAAAATCCCTCAATATAAATATCTCTCACTTATTTAAA
**A:** 0.0945

----------
- System: Bacillus subtilis
- protocol.details: cleaved RNA product abundance (RNA/gDNA barcode ratio) relative to median wild-type variant (ratio to wild type); higher = more accumulation of the downstream cleavage product
- condition.context: experiment (reporter, strain, medium): exp 2b: truncated aprE reporter, strain BJT200; cleavage site: cggR-gapA (positions -7 to +36 mutated)
Recorded cleaved RNA product abundance values for a group of sequences are listed next.
Respond with the number and no other words.

Example sequences with recorded cleaved RNA product abundance:
# sequence, cleaved RNA product abundance
rows = [
    ("ACAGACGAAGGAGCCGCAAAGAAGTTATTAATGGATGACTAATCCCTCAATATAAATATCTCTCACTTATTTAAA", 0.0938),
    ("ACAGACGAAGGAGCCGCAAAGAAATTATTAAGGGATGAATAAACCCTCAATATAAATATCTCTCACTTATTTAAA", 0.405),
    ("ACAGACGAAGGAGCCGCAAAGAATTTATTAAGGGATGACTAATCCCTCAATATAAATATCTCTCACTTATTTAAA", 0.3),
    ("ACAGACGAAGGAGCCGCAAAGAAGTAATTAAGGGATGAATAATACCTCAATATAAATATCTCTCACTTATTTAAA", 0.115),
    ("ACAGACGAAGGAGCCGCAAAGAAGATACTAAGGGATGAATAATCCCTCAATATAAATATCTCTCACTTATTTAAA", 0.0772),
    ("ACAGACGAAGGAGCCGCAAAAAAGTTATTAAGGGTTGAATAATCCCTCAATATAAATATCTCTCACTTATTTAAA", 0.373),
    ("ACAGACGAAGGAGCCGCAAAGAAGTTATTAAGGGATGAATTATCCCTCAATATAAATACCTCTCACTTATTTAAA", 0.469),
    ("ACAGACGAAGGAGCCGCAACGAAGTTAATAAGGGATGAATAATCCCTCAATATAAATATCTCTCACTTATTTAAA", 0.227),
]

**Q:** Give cleaved RNA product abundance for the following sequence: ACAGACGAAGGAGCCGCAACGAAGTTATTAAGTGATGAATAATCCCTCAATATAAATATCTCTCACTTATTTAAA
**A:** 0.0825

**Q:** Output measured cleaved RNA product abundance for this item: ACAGACGAAGGAGCCGCAAAGAAGTTATTAAGGGATGACTAATCCATCAATATAAATATCTCTCACTTATTTAAA
**A:** 0.112

**Q:** Identify the reported cleaved RNA product abundance for the following entry. ACAGACGAAGGAGCCGCAAAGAAGTTATAAAGGGATGAATAATGCCTCAATATAAATATCTCTCACTTATTTAAA
**A:** 0.113

**Q:** Determine from records and report cleaved RNA product abundance for ACAGACGAAGGAGCCGCAAAGAATTTATTAAGGGATGAATACTCCCTCAATATAAATATCTCTCACTTATTTAAA
**A:** 0.404

**Q:** Please indicate cleaved RNA product abundance recorded for ACAGACGAAGGAGCCGCAAATAAGTTATTAAGGGATGAATAATCCCTCACTATAAATATCTCTCACTTATTTAAA
**A:** 0.193

**Q:** # return recorded cleaved RNA product abundance for input ACAGACGAAGGAGCCGCAAAGAAGTTAATAAGGGATGAATAATCCCTCAATATAAATATCTCTCACTTATTTAAA
**A:** 0.264

**Q:** Give recorded cleaved RNA product abundance. ACAGACGAAGGAGCCGCAAAGAAGTTATTAAGGCATGAATAATCCATCAATATAAATATCTCTCACTTATTTAAA
**A:** 0.102

**Q:** Answer with reported cleaved RNA product abundance of ACAGACGAAGGAGCCGCAAAGAAGTTATTAAAGGATGAATAAACCCTCAATATAAATATCTCTCACTTATTTAAA
**A:** 0.115

**Q:** Using known records, supply cleaved RNA product abundance for ACAGACGAAGGAGCCGCAAAGAAGATATTAAGGGTTGAATAATCCCTCAATATAAATATCTCTCACTTATTTAAA
**A:** 0.43

**Q:** Please supply the value of reported cleaved RNA product abundance for the item ACAGACGAAGGAGCCGCAAAGAAGTTATTAAGGGATGAATAATACCACAATATAAATATCTCTCACTTATTTAAA
**A:** 0.0894

**Q:** Read the entry ACAGACGAAGGAGCCGCAAATAAGTTATTAAGGCATGAATAATCCCTCAATATAAATATCTCTCACTTATTTAAA and write its reported cleaved RNA product abundance.
**A:** 0.0924

**Q:** Tell us which cleaved RNA product abundance value is on record for ACAGACGAAGGAGCCGCAAAGAAGTTATTAAGTGATGAATAATCCATCAATATAAATATCTCTCACTTATTTAAA
**A:** 0.153

**Q:** Hello, please tell me recorded cleaved RNA product abundance for this one: ACAGACGAAGGAGCCGCAAAGAAGTTATAAATGGATGAATAATCCCTCAATATAAATATCTCTCACTTATTTAAA
**A:** 0.113

**Q:** Report measured cleaved RNA product abundance; entry is ACAGACGAAGGAGCCGCAAAGAAATTATTAAGGGATAAATAATCCCTCAATATAAATATCTCTCACTTATTTAAA
**A:** 0.818

**Q:** Tell me measured cleaved RNA product abundance for ACAGACGAAGGAGCCGCAAAGAAGTTTCTAAGGGATGAATAATCCCTCAATATAAATATCTCTCACTTATTTAAA please.
**A:** 0.234

**Q:** Provide one value: measured cleaved RNA product abundance of ACAGACGAAGGAGCCGCAAATAACTTATTAAGGGATGAATAATCCCTCAATATAAATATCTCTCACTTATTTAAA
**A:** 0.465

Reference source for all entries: the supplement of paper PMC11780869
